tested_target: Protein FosB (Mus musculus) (UniProt P13346)
Sequence (P13346 whole entry, looked up): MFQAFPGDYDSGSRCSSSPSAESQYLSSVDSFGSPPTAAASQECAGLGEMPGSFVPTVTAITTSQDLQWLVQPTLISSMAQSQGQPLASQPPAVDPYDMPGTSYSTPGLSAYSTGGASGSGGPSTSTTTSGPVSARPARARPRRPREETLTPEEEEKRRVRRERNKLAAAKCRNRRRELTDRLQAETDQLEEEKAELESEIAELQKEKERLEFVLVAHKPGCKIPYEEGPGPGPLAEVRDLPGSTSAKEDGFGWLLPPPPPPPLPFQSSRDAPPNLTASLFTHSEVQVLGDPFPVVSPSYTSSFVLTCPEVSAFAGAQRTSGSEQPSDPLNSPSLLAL
procedure_details: activators of delta FosB homodimer, primary screen, biochemical, fluorescence polarization, TAMRA-CDK5 oligo, single point (AID 493131);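 also: fluorescence polarization rise as delta FosB binds a TAMRA Cdk5 AP-1 oligo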
measurement_setup: purified delta FosB, at 25 µM, stronger effect = higher value, percent of positive-control signal above neutral wells
Hit rate of the full screen: of about 340,000 compounds, about 3,300 (0.97%) were called active. The entries come from a sample that favours actives as a whole.
Provide the reported activation of each item.
Quick note: give the figure in %, leave out the unit.

Value of activation reported for the molecule CC(NS(=O)(=O)c1ccc(Cl)cc1)C(=O)Nc1ccc2c(c1)OCCO2 (centres undefined) is 1.9

Value of activation reported for the molecule C/C=C(\C)C(=O)N1CC2(CC(c3cccc(NC(=O)CCCCC)c3)=NO2)C[C@@H]1C(N)=O (some centres undefined) is -1.2

Value of activation reported for the molecule `COc1cc(C)ccc1OCC(=O)OCC(=O)c1ccc[nH]1` is 6.43

Value of activation reported for the molecule COc1cccc(N2CC(NS(=O)(=O)c3cccs3)CC2=O)c1 (centres undefined) is 0.171
